system: WPMY1-CANX-COX4; assay: lowest phenotypically active concentration; higher = less potent; details: treatment time: 24 h
Where a name gives a salt, the structure may show the parent alone.
recorded_metric: lowest phenotypically active concentration (µM)

- compound: "CC1(C)CC(=O)C2=C(C1)NC(=S)NC2c1cccc(O)c1 (stereo not drawn)"
  bound_sign: "="
  observed: 3
- compound: "Nc1ncnc2c1nc(Br)n2[C@@H]1O[C@@H]2COP(=O)(O)O[C@H]2[C@H]1O [8-Bromo-cAMP, sodium salt]"
  bound_sign: "="
  observed: 9
- compound: "CC1=C(C(=O)Nc2cc3cn[nH]c3cc2F)C(c2ccc(C(F)(F)F)cc2)CC(=O)N1 (stereo not drawn)"
  bound_sign: "≤"
  observed: 0.3
- compound: "COc1cc(N2CCN(C)CC2)ccc1Nc1nccc(-c2cn(C)c3cnccc23)n1"
  bound_sign: "≤"
  observed: 0.3
- compound: "CC(C)OC(=O)c1cc2c(OCC(O)CNC(C)(C)C)cccc2[nH]1 (stereo not drawn)"
  bound_sign: "="
  observed: 9
- compound: "CN1CCN(C(=O)CN[C@H]2C[C@@H]2c2ccc(OCc3ccccc3)cc2)CC1 [RN 1 dihydrochloride]"
  bound_sign: "="
  observed: 9
- compound: "Cc1ncc(-c2ccnc(Nc3ccc(S(C)(=O)=O)cc3)n2)n1C(C)C"
  bound_sign: "≤"
  observed: 0.3
- compound: "CCCCc1oc2ccc(NS(C)(=O)=O)cc2c1C(=O)c1ccc(OCCCN(CCCC)CCCC)cc1"
  bound_sign: "="
  observed: 9
- compound: "Cc1cc2c(F)c(Oc3ncnn4cc(OC[C@@H](C)O)c(C)c34)ccc2[nH]1"
  bound_sign: "="
  observed: 9
- compound: "O=C(c1cccc(Cl)c1F)N1CCN(Cc2cccc(Nc3nccs3)n2)CC1"
  bound_sign: "="
  observed: 9
- compound: "CN(C)CCCN1c2ccccc2CCc2ccc(Cl)cc21"
  bound_sign: "="
  observed: 9
- compound: "O=C(Nc1c[nH]nc1-c1nc2cc(CN3CCOCC3)ccc2[nH]1)NC1CC1"
  bound_sign: "≤"
  observed: 0.3
- compound: "Cc1ccc(C(=O)N(CCCN)[C@@H](c2nc3cc(Cl)ccc3c(=O)n2Cc2ccccc2)C(C)C)cc1"
  bound_sign: "="
  observed: 3
- compound: "Cc1ccc(C(=O)Oc2ccc(C(O)CNC(C)(C)C)cc2OC(=O)c2ccc(C)cc2)cc1 (stereo not drawn)"
  bound_sign: "="
  observed: 9
- compound: "C[C@@H](N)[C@H]1CC[C@H](C(=O)Nc2ccncc2)CC1"
  bound_sign: "="
  observed: 1
- compound: "Cc1cc(Nc2cc(N3CCN(C)CC3)nc(Sc3ccc(NC(=O)C4CC4)cc3)n2)[nH]n1"
  bound_sign: "≤"
  observed: 0.3
- compound: "Nc1nccc(-c2ccc3noc(-c4ccc(Cl)cc4)c3c2)n1"
  bound_sign: "="
  observed: 9
- compound: "COc1cc(N2CCC(N)CC2)ccc1Nc1ncc(Cl)c(-c2c[nH]c3ccccc23)n1"
  bound_sign: "="
  observed: 1

---

tested on: A549-GM130-SQSTM1; experiment: phenotypically active (imaging signature differs from DMSO and reproducible) at any of 0.3-9 uM (binary (1 = active, 0 = inactive)); higher = active; conditions: treatment time: 24 h
Where a name gives a salt, the structure may show the parent alone.

- compound: "CS(=O)(=O)c1ccc(-c2nnc(/C=C/c3nnc(-c4ccc(C#N)cc4)o3)n2-c2ccccc2Cl)nc1"
  phenotypically active: "0 (inactive)"
- compound: "CCCCCOC(=O)Nc1nc(=O)n([C@@H]2O[C@H](C)[C@@H](O)[C@H]2O)cc1F"
  phenotypically active: "0 (inactive)"
- compound: "Cc1ccc([N+](=O)[O-])cc1S(=O)(=O)N(C)/N=C/c1cnc2ccc(Br)cn12"
  phenotypically active: "1 (active)"
- compound: "COc1cc(N2CCC(N3CCN(C)CC3)CC2)ccc1Nc1ncnc(Nc2ccccc2S(=O)(=O)C(C)C)n1"
  phenotypically active: "1 (active)"
- compound: "CN1CCN(c2ccc(-c3cccc(CN4CCOCC4)c3)cc2NC(=O)c2c[nH]c(=O)cc2C(F)(F)F)CC1"
  phenotypically active: "1 (active)"
- compound: "CCCCN1C[C@H](O)[C@@H](O)[C@H](O)[C@H]1CO [Miglustat hydrochloride]"
  phenotypically active: "0 (inactive)"
- compound: "CO[C@H]1C=CO[C@@]2(C)Oc3c(C)c(O)c4c(O)c(c(/C=N/N5CCN(C)CC5)c(O)c4c3C2=O)NC(=O)C(C)=CC=C[C@H](C)[C@H](O)[C@@H](C)[C@@H](O)[C@@H](C)[C@H](OC(C)=O)[C@@H]1C"
  phenotypically active: "1 (active)"
- compound: "CCn1c(=O)c2cc(C(N)=O)c(N)nc2n(C2CC2)c1=O"
  phenotypically active: "0 (inactive)"
- compound: "Cc1cccc(-c2n[nH]cc2-c2ccc(F)c(-c3cnn(CCO)c3)c2)n1"
  phenotypically active: "0 (inactive)"
